Known Percent Effect of a selection of molecules
studyTarget: Proteasome subunit beta (Trypanosoma cruzi)
assayComment: Trypanosoma cruzi proteasome chymotrypsin-like activity (TcProtChymo) assay. Note: in the data most compounds retested in dose-response had high values.
Type: functional
Set-up: scale not given: direction of the effect not stated beside the values
conditionNotes: 9.37 µM
reportedProperty: Percent Effect (%)

{"molecule": "Fc1cc(CNCc2ccc3c(c2)CCO3)ccc1N1CCOCC1", "reportedProperty": "Percent Effect", "numericValue": 6.38}
{"molecule": "COc1ccc(-c2nc(CN3CCN(CCO)CC3)co2)cc1", "reportedProperty": "Percent Effect", "numericValue": 15.2}
{"molecule": "CS(=O)(=O)N1CCC(C(=O)NC(Cc2ccsc2)c2ccccn2)CC1 (stereo unspecified)", "reportedProperty": "Percent Effect", "numericValue": 4.84}
{"molecule": "CS(=O)(=O)N1CCOCC2(CCN(C(=O)c3cccnc3)CC2)C1", "reportedProperty": "Percent Effect", "numericValue": 9.33}
{"molecule": "CCC1=N[C@@]2(CC[C@@H]3CN(Cc4ccc(Cl)cc4)C[C@@H]32)C(=O)N1", "reportedProperty": "Percent Effect", "numericValue": 20.3}
{"molecule": "CCc1nc(C2CCCN(C(=O)c3cccc4cn[nH]c34)C2)no1 (stereo unspecified)", "reportedProperty": "Percent Effect", "numericValue": 6.64}
{"molecule": "CCc1nc(CN(C)C2CCN(Cc3cnc(C)cn3)C2)no1 (stereo unspecified)", "reportedProperty": "Percent Effect", "numericValue": 15.5}
{"molecule": "NC(=O)c1cnn2c1NCC(CNCCc1ccco1)C2 (stereo unspecified)", "reportedProperty": "Percent Effect", "numericValue": 8.86}
{"molecule": "Cc1noc([C@H]2C[C@@H]3CCN(CC4CC4)C[C@H]3O2)n1", "reportedProperty": "Percent Effect", "numericValue": 3.13}
{"molecule": "CN(Cc1ccccn1)C(=O)[C@]12COC[C@H]1CN(Cc1cnn(C)c1)C2", "reportedProperty": "Percent Effect", "numericValue": 3.93}
{"molecule": "Cc1cccc(C(=O)N2C[C@@H]3CCN(c4cccnc4)C[C@@H]3C2)c1", "reportedProperty": "Percent Effect", "numericValue": 1.67}

* * *

studyTarget: Sialic acid-binding Ig-like lectin 9 (Homo sapiens) (UniProt Q9Y336)
Sequence (Q9Y336 whole entry): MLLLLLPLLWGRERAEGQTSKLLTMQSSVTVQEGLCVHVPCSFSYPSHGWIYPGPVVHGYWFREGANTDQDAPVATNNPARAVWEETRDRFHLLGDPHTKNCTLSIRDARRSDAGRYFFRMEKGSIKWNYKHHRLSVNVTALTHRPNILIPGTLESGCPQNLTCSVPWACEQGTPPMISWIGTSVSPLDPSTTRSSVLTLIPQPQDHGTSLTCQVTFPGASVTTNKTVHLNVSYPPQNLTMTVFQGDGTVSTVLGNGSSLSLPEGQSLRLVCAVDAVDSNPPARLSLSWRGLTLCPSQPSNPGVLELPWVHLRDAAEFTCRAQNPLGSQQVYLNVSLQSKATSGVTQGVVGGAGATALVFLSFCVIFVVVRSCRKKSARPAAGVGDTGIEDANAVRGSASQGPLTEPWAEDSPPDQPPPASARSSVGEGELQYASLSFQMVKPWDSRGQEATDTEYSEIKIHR
assayComment: Hs-Siglec9 ALPHAscreen SOP 20170721
Set-up: scale not given: direction of the effect not stated beside the values
conditionNotes: 10 µM
Known Percent Effect of a selection of compounds
reportedProperty: Percent Effect (%)

{"compound": "Cc1nc(C2CCCN(C(=O)C(C)(C)n3cc(Cl)cn3)C2)no1 (centres undefined)", "numericValue": 3.13}
{"compound": "O=C1OC2(CCNCC2)CN1CC(=O)N1CCCC1c1ccco1 (centres undefined)", "numericValue": 4.82}
{"compound": "O=C(NCc1nnc2n1CCCC2)N1CCc2ccccc2C1", "numericValue": 2.59}
{"compound": "Cn1cc(CN2CCN(Cc3nccn3C)CC2)cn1", "numericValue": -5.51}
{"compound": "O=C(CC1CCCC1)N1CCCC(c2n[nH]c3nccnc23)C1 (centres undefined)", "numericValue": 3.58}
{"compound": "CNc1nc2c(s1)C(c1cccc(F)c1F)CC(=O)N2 (centres undefined)", "numericValue": -2.61}
{"compound": "CCS(=O)(=O)CCN1CCCC1c1noc(C2CC2)n1 (centres undefined)", "numericValue": -3.74}
{"compound": "CCc1ncc2c(n1)CN(Cc1nc(-c3ccccn3)no1)CC2", "numericValue": 15.4}
{"compound": "O=C1CC2(CCN(CC3CCOC3)CC2)CN1Cc1cc(F)cc(F)c1 (centres undefined)", "numericValue": 26.3}
{"compound": "Cc1nc(C)n(CC2CCCN(c3ncnc4sccc34)C2)n1 (centres undefined)", "numericValue": -5.07}
{"compound": "Cc1nc2c(c(NC3CC3)n1)CCN(C(=O)C(C)(C)O)CC2", "numericValue": -8.96}
{"compound": "Cn1cc(CN2C[C@@H]3COC[C@]3(COc3ccc(C#N)cn3)C2)cn1", "numericValue": 6.07}
{"compound": "O=C(NC1CC1)[C@H]1C[C@H]2OCC[C@H]2N(CC2CC2)C1", "numericValue": 9.5}
{"compound": "CC(=O)N1CCN(C(=O)NCc2csc(Br)c2)CC1", "numericValue": 5.56}
{"compound": "Cc1cc(C(=O)N2CCCC2Cn2nc(C)cc2C)on1 (centres undefined)", "numericValue": 13.4}
{"compound": "CC(C)(C)C(=O)N1CCCC1c1nc(O)cc(-c2ccccn2)n1 (centres undefined)", "numericValue": 16.5}
{"compound": "Cc1cnccc1N1CCCN(C(=O)CCCc2cn[nH]c2)CC1", "numericValue": 18.3}
{"compound": "COCc1nc2cc(NCc3ccc(C)o3)ccc2o1", "numericValue": 8.51}
{"compound": "CC(=O)N(Cc1ncc(C(C)C)o1)C1CCN(CCn2cccn2)C1 (centres undefined)", "numericValue": 0.985}
{"compound": "COc1ccc(S(=O)(=O)N2CCCC3(CCCN3S(C)(=O)=O)C2)cc1 (centres undefined)", "numericValue": -2.37}
{"compound": "COCCc1noc(CNC2CCCN(c3cccnn3)C2)n1 (centres undefined)", "numericValue": -4.06}
{"compound": "CC(=O)N1[C@H](Cn2cncn2)C[C@@H]2CN(S(C)(=O)=O)CC[C@@H]21", "numericValue": 9.47}
{"compound": "CCc1nc(C2CCCN2Cc2nnc(Cc3ccccc3)o2)no1 (centres undefined)", "numericValue": 3.12}
{"compound": "CN(CCO)C[C@@H]1CN(C(=O)c2c(F)cccc2Cl)C[C@@H]1CO", "numericValue": 6}
